Recorded values, source PubChem BioAssay.

Experiment: caspase-8 TRAIL sensitization, hit retest, confirmation, cell-based, NB7+caspase-8, with/without TRAIL, luminescence panel (AID 651596)
Conditions: NB7 neuroblastoma + caspase-8, without TRAIL, luminescence viability, without TRAIL, mean of runs, at 10 µM
// NB: equality with 60% counts as False; only activity strictly below is True

Dear reviewer, please state whether C/C=C/c1ccc(OCCCNC2CCCC2)c(OC)c1 has activity strictly beneath 60%.
True

Dear reviewer, please state whether CCOC(=O)/C(=C/c1ccc(OC(F)F)cc1)C1=Nn2c(nnc2-c2ccc(Cl)cc2)SC1 has activity strictly beneath 60%.
False

Dear reviewer, please state whether COc1cc(NC(=O)c2cc3cccc(OC)c3o2)cc(C(=O)Nc2cccc(C(F)(F)F)c2)c1 has activity strictly beneath 60%.
True

Dear reviewer, please state whether O=C(NC(=S)Nc1nc2c(s1)CCCC2)c1ccccc1 has activity strictly beneath 60%.
True

Dear reviewer, please state whether COc1ccc(S(=O)(=O)N2CCN(c3ccc4nnc(-c5ccccc5)n4n3)CC2)cc1 has activity strictly beneath 60%.
False

Dear reviewer, please state whether CCCCn1c(CCl)nc2cc(S(=O)(=O)N3CCOCC3)ccc21 has activity strictly beneath 60%.
False

Dear reviewer, please state whether Nc1ncnc2c(C3OC(CO)C(O)C3O)c[nH]c12 (stereo not given) has activity strictly beneath 60%.
False

Dear reviewer, please state whether O=c1c2[nH]c3ccc(F)cc3c2ncn1C1CCCCC1 has activity strictly beneath 60%.
True

Dear reviewer, please state whether Cc1ccc(NC(=O)N2CCc3ccccc32)cc1C has activity strictly beneath 60%.
False

Dear reviewer, please state whether Cc1cc(C)cc(NS(=O)(=O)c2ccc3c(c2)c(=O)n(C)c(=O)n3C)c1 has activity strictly beneath 60%.
False

Dear reviewer, please state whether Cc1cccc(/C(N)=N/OC(=O)c2ccoc2C)c1 has activity strictly beneath 60%.
False

Dear reviewer, please state whether CCCCCCCCCCn1ccc(=N)cc1 has activity strictly beneath 60%.
False

Dear reviewer, please state whether CNC[C@H](Cc1ccccc1)NC[C@@H](Cc1cccc2ccccc12)NCCc1ccc(C)cc1 has activity strictly beneath 60%.
False

Dear reviewer, please state whether CC(=O)Nc1cc(-c2cccc(C(=O)NCCN(C)C)c2)cn2c(-c3cccc(C(F)(F)F)c3)cnc12 has activity strictly beneath 60%.
False

* * *

Biological target: Tumor necrosis factor receptor superfamily member 10B (Homo sapiens)
Experiment: caspase-8 TRAIL sensitization, hit retest, confirmation, cell-based, NB7+caspase-8, with/without TRAIL, luminescence panel (AID 651596)
Details: NB7 neuroblastoma + caspase-8, TRAIL sensitization, luminescence viability, with TRAIL, mean of runs, at 10 µM, stronger effect = higher value
// NB: equality with 70% counts as No; only activity strictly below is Yes

Below are worked cases with known answers.
1. Cc1ccc(-n2cc(C(=O)c3ccccc3O)cn2)cc1    Yes
2. Cc1ccc(-c2ccccc2NC(=O)CCl)o1    Yes
3. CNS(=O)(=O)c1cccc(C(=O)OCC(=O)c2cc(C)n(CC3CCCO3)c2C)c1 (stereo unspecified)    No

Let us examine a further case.
Dear reviewer, please state whether Cc1ccc2nc(-c3ccc(NC(=O)COC(=O)c4ccco4)cc3)sc2c1 has activity strictly beneath 70%.
No

* * *

Test: inhibition of Brca1/Bard1 split-luciferase complementation, confirmation, counter-screen for Mdm2/MdmX interaction inhibitor project, luminescence, single concentration (AID 504668)
Conditions: Brca1/Bard1 bimolecular luciferase complementation counterscreen, at 8 µM, stronger effect = higher value
Mark F for inhibition values under 30%, and T for everything at or above.

Below are worked cases with known answers.
1. O=S(=O)(c1ccc(Cl)cc1)N1CCN(Cc2ccc(O)c3ncccc23)CC1    F
2. CCc1cc(C(=O)N2CCc3c([nH]c4ccccc34)C2c2ccc(OC)cc2F)no1 (stereo not given)    T
3. Cc1cc(N2CCOCC2)c2c(N)c(Br)cc(C)c2n1    T
4. Cn1ccc2cc(-c3ccc4ncnc(NCc5cccs5)c4c3)ccc21    F

Quick check: does C=CCNC(=S)N/N=C(\C)c1ccccn1 have inhibition greater than or equal to 30%?
T

Quick check: does CCOC(=O)c1nc(NNC(=O)c2ccc([N+](=O)[O-])cc2)sc1C have inhibition greater than or equal to 30%?
F

Quick check: does O=C(N/N=C/c1ccc(O)c2ncccc12)c1cccc(Br)c1 have inhibition greater than or equal to 30%?
T

Quick check: does COc1ccc([C@@H]2[C@@H]3C(=O)N(C(C)(C)C)C(=O)[C@@H]3[C@]3(Cc4ccccc4)C(=O)N(c4ccc(Br)cc4)C(=O)N23)cc1 have inhibition greater than or equal to 30%?
T

* * *

Target: Tumor necrosis factor receptor superfamily member 10B (Homo sapiens)
Assay: caspase-8 TRAIL sensitization, hit retest, confirmation, cell-based, NB7+caspase-8, with/without TRAIL, luminescence panel (AID 651596)
Conditions: NB7 neuroblastoma + caspase-8, TRAIL sensitization, luminescence viability, with TRAIL, mean of runs, at 10 µM, stronger effect = higher value
// NB: equality with 60% counts as 0 (no); only activity strictly below is 1 (yes)

Below are worked cases with known answers.
1. O=C(Cn1ncc(Cl)c(Cl)c1=O)c1ccc(Cl)cc1    0 (no)
2. CCN1CCN(c2ccc(S(=O)(=O)N3CCOCC3)cc2NC(=O)/C=C/c2ccc([N+](=O)[O-])cc2)CC1    1 (yes)
3. CC1(C)N=C(N)N=C(N)N1CCCCc1ccccc1    0 (no)

Dear reviewer, please state whether Cc1cc(C)cc(NC(=O)/C(C#N)=C/c2cn(CC(=O)NCc3ccco3)c3ccccc23)c1 has activity strictly beneath 60%.
0 (no)

Dear reviewer, please state whether CCOc1ccc(-c2cc(C(=O)N/N=C/c3cccnc3)c3ccccc3n2)cc1 has activity strictly beneath 60%.
0 (no)

Dear reviewer, please state whether Cc1ccc2c(c1)N=C(c1ccccc1)CC(C(Cl)Cl)=N2 has activity strictly beneath 60%.
1 (yes)

Dear reviewer, please state whether CCCCC(=O)Nc1cc(C)c2c(=O)oc3ccccc3c2n1 has activity strictly beneath 60%.
0 (no)

Dear reviewer, please state whether Cc1onc(-c2c(F)cccc2Cl)c1C(=O)Nc1nc2ccccc2[nH]1 has activity strictly beneath 60%.
1 (yes)

Dear reviewer, please state whether NC(c1csc(NC(=O)Nc2ccc(OC(F)(F)F)cc2)n1)C1CCCCC1 (stereo not given) has activity strictly beneath 60%.
0 (no)

Dear reviewer, please state whether O=C(Cn1ncc(Cl)c(Cl)c1=O)c1ccc2c(c1)OCCO2 has activity strictly beneath 60%.
1 (yes)

* * *

Target: PEG-3 (UniProt Q6IN02)
Sequence (Q6IN02 whole entry, looked up): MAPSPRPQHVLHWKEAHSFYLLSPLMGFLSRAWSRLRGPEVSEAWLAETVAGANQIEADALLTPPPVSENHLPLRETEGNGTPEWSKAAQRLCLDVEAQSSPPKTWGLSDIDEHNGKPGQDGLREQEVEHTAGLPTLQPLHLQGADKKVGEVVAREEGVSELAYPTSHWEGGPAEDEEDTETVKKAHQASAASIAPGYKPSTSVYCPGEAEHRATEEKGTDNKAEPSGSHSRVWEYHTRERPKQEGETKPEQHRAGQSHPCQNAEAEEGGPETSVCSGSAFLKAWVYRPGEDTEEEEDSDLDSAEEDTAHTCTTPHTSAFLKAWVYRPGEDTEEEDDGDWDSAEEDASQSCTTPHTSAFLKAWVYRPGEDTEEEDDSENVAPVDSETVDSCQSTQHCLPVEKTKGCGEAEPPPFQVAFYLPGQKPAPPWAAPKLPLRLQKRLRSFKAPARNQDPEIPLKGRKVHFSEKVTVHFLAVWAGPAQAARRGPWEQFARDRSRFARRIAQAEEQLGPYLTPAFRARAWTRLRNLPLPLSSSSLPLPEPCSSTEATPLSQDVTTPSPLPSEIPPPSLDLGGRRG
Assay: Peg3 promoter luciferase inhibitors, potency, dose response, cell-based, HeLa, CREF/GAPDH counter-screen panel (AID 624167)
Conditions: CREF/GAPDH counter-screens; HeLa PEG-Prom luciferase reporter, overnight, run 1, dose range 1, at 100 µM (top of the series) unless noted
PROPERTY_MEASURED: inhibition (%)
Just the number please, in %, no unit attached.

Example cases with answers are listed next.
1. COc1cc(/C=C/c2ccc3cccc(O)c3n2)ccc1O    92.4
2. CCn1cc(CN2CCC(C(=O)Nc3cccc(-c4cccc(Cl)c4)c3)CC2)cn1    99.1
3. Cc1cc(NC(c2cccnc2)c2ccc3cccnc3c2O)no1 (stereo not drawn)    63.9
4. CS(=O)(=O)c1ccc(-c2sc3ccccc3c2C#CCCO)cc1    96
5. O=C1c2cccc3cc([N+](=O)[O-])cc(c23)C(=O)N1CCN1CCCC1    102
6. Cc1nc(SCC(=O)Nc2nc3ccccc3s2)c(C#N)c(C)c1C    95.4
7. c1cc2c3c(cccc3c1)NC1(CCC3(CC1)Nc1cccc4cccc(c14)N3)N2    97.7
8. CCCC(=O)NC(c1ccc(Cl)cc1)c1ccc2cccnc2c1O (stereo not drawn)    99.9

inhibition reading for CCN(CC)CCSc1nnc2c3cc(C)ccc3n(Cc3ccccc3)c2n1 : 102

inhibition reading for Cc1ccc2nc(-c3ccc(Br)cc3)cn2c1 : 101

inhibition reading for O=C(O)c1ccc(N/N=C/c2ccc3c(c2)OCO3)cc1 : 98

inhibition reading for Cc1nc2c(OCc3ccc(OC(F)F)cc3)cccn2c1N(C)C(=O)CCC1CCCC1 : 95.4

inhibition reading for CCCCCN1C=CC(=C2C(=O)c3ccccc3C2=O)C=C1 : 102

inhibition reading for CCN(CC)CCN1CCN(c2cncc(-c3ccc4ccccc4c3)n2)CC1 : 98.9

inhibition reading for c1ccc(CCNc2nc(-c3ccncc3)nc3ccccc23)cc1 : 52.1

inhibition reading for Cc1nc(N2CCN(c3ccccn3)CC2)c2c(C)c(C(=O)Nc3ccccc3F)sc2n1 : 53.1

inhibition reading for CC(C)(C)c1ccc(Cn2c(=O)cnc3ccccc32)cc1 : 100

inhibition reading for CCc1nc(Nc2ccc(N3CCN(C(C)=O)CC3)cc2)c2oc3ccccc3c2n1 : 101

* * *

Form field: inhibition (one value per entry).
Assay: inhibitors of PAF-induced NFkB signaling in CF airway cells, dose response, cell-based, uHTS hits, panel, cytotoxicity readout (AID 624344)
Conditions: CF bronchial epithelial cells, PAF-induced NFkB reporter inhibition, with PAF, run 1; at 79 µM (top of the series) unless noted

1. COc1ccccc1Cn1c(=O)c2ccccc2n2c(Sc3ncnc4sccc34)nnc12    101%
2. Nc1nc(N)nc(-c2cc([N+](=O)[O-])ccc2O)n1    76.3%
3. COc1ccc(COC(=O)C2=C(C)NC(=O)NC2c2ccc(F)cc2)cc1 (stereo not given)    90.1%
4. COc1ccc2cc(C(N)=O)c(=Nc3ccc(C)cc3)oc2c1    87.6%
5. CCc1nc(Cl)c(C#N)c2c1CCCC2    112%
6. CCN1CCN(Cc2ccc(NC(=O)c3ccc(C)c(NC(=O)c4csc(-c5ccncc5)n4)c3)cc2C(F)(F)F)CC1    107%
7. CC(C)(C)S(=O)N1Cc2cc(C(=O)NCC(F)(F)F)nc(-c3cccc(-c4cccc(F)c4)c3)c2[C@@H]1CCO (stereo not given in full)    110%
8. COc1ccccc1/C=C/C(=O)c1c2c(c(C)[nH]c1=O)CCCC2    110%

inhibition reading for CN1CCN(S(=O)(=O)c2ccc(Sc3nnnn3-c3ccccc3)c([N+](=O)[O-])c2)CC1 : 109%

inhibition reading for Cc1ncc(CO)c2c1Oc1nc(-c3ccccc3F)nc(SCC(=O)N(C)c3ccccc3)c1C2 : 105%
